- measurement.target: SHP-2 enzyme (Met1-Leu525) (Homo sapiens (Human))
- Sequence (Q06124 1-525): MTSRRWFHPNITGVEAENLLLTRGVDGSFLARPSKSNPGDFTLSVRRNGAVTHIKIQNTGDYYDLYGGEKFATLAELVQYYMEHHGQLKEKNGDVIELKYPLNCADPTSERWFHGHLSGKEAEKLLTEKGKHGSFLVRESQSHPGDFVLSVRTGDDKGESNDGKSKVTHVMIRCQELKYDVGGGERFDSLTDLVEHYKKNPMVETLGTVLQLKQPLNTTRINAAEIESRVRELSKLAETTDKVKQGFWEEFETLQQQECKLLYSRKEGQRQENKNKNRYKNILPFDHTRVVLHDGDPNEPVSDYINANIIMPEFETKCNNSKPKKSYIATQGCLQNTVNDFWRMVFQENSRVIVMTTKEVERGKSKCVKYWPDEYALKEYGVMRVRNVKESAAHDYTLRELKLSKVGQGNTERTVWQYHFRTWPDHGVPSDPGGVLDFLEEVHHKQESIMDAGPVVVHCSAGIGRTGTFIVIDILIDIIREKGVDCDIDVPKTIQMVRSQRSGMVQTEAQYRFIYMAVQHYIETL
- test.details: SHP2 inhibition enzymatic assay
- Assay type: biochemical
- condition.description: 0.5 nM SHP-2 activated by 500 nM IRS1 peptide, 75 μM DiFMUP substrate; read-out: SHP2wt-IC50
pIC50: −log10 of the molar value.
Measured pIC50 of individual entries

Here's what some known entries look like.
>  <compound>
NC[C@]1(c2ccccc2F)[C@@H]2CCN(c3cnc4c(-c5cnn(-c6ccccc6)c5)n[nH]c4n3)C[C@@H]21

>  <pIC50>
> 6.30

$$$$
>  <compound>
COCc1cc(C2(CN)C3CCN(c4cnc5c(-c6ccc7nn(C)cc7c6Cl)n[nH]c5n4)CC32)no1 (centres unmarked)

>  <pIC50>
> 6.30

$$$$
>  <compound>
COCCn1cc2c(Cl)c(-c3n[nH]c4nc(N5CC[C@@H]6[C@H](C5)[C@@]6(CN)c5ccccc5F)cnc34)ccc2n1

>  <pIC50>
> 6.30

$$$$

Given the compound Cc1nccc(Sc2ccc3nc(N4CC[C@@H]5[C@H](C4)[C@@]5(CN)c4cc(F)ccc4F)cnc3n2)c1F , what is its reported pIC50? > 6.30

Given the compound NC[C@]1(c2ccccc2F)[C@@H]2CCN(c3cnc4c(-c5cccc6[nH]c(=O)ccc56)n[nH]c4n3)C[C@@H]21 , what is its reported pIC50? > 6.30

Given the compound Cc1cc(-c2n[nH]c3nc(N4CC[C@@H]5[C@H](C4)[C@@]5(CN)c4ccccc4F)cnc23)cc2cccnc12 , what is its reported pIC50? > 6.30

Given the compound Cc1cc([C@@]2(CN)[C@@H]3CCN(c4cnc5c(-c6ccc7c(c6)OC(F)(F)O7)n[nH]c5n4)C[C@@H]32)no1 , what is its reported pIC50? > 6.30

Given the compound Cc1csc(C2(CN)C3CCN(c4cnc5c(Sc6ccnc(N)c6Cl)n[nH]c5n4)CC32)n1 (centres unmarked) , what is its reported pIC50? > 6.30

Given the compound NC[C@]1(c2ccccc2F)[C@@H]2CCN(c3cnc4c(-c5ccc(-c6noc(O)n6)cc5Cl)n[nH]c4n3)C[C@@H]21 , what is its reported pIC50? > 6.30

Given the compound NCC1(c2ccccn2)C2CCN(c3nc4nc(Sc5cccnc5C(F)(F)F)cnc4[nH]3)CC21 (centres unmarked) , what is its reported pIC50? > 6.30

Given the compound Cc1csc([C@@]2(CN)[C@@H]3CN(c4nc5[nH]nc(-c6ccc7nc(C)sc7c6Cl)c5c(=O)n4C)C[C@@H]32)n1 , what is its reported pIC50? > 6.30

Given the compound CN1Cc2cc(-c3n[nH]c4nc(N5CC[C@@H]6[C@H](C5)[C@@]6(CN)c5ccccc5F)cnc34)ccc2C1=O , what is its reported pIC50? > 6.30

Given the compound Cc1conc1C1(CN)C2CCN(c3cnc4c(-c5ccc6onc(C)c6c5)n[nH]c4n3)CC21 (centres unmarked) , what is its reported pIC50? > 6.30

Given the compound Cc1cc(C2(CN)C3CCN(c4cnc5c(-c6ccc(C#N)c7ncccc67)n[nH]c5n4)CC32)no1 (centres unmarked) , what is its reported pIC50? > 6.30
